- experimental_system: Voltage-dependent N-type calcium channel subunit alpha-1B (Homo sapiens) (UniProt Q00975)
- Sequence (Q00975 whole entry, looked up): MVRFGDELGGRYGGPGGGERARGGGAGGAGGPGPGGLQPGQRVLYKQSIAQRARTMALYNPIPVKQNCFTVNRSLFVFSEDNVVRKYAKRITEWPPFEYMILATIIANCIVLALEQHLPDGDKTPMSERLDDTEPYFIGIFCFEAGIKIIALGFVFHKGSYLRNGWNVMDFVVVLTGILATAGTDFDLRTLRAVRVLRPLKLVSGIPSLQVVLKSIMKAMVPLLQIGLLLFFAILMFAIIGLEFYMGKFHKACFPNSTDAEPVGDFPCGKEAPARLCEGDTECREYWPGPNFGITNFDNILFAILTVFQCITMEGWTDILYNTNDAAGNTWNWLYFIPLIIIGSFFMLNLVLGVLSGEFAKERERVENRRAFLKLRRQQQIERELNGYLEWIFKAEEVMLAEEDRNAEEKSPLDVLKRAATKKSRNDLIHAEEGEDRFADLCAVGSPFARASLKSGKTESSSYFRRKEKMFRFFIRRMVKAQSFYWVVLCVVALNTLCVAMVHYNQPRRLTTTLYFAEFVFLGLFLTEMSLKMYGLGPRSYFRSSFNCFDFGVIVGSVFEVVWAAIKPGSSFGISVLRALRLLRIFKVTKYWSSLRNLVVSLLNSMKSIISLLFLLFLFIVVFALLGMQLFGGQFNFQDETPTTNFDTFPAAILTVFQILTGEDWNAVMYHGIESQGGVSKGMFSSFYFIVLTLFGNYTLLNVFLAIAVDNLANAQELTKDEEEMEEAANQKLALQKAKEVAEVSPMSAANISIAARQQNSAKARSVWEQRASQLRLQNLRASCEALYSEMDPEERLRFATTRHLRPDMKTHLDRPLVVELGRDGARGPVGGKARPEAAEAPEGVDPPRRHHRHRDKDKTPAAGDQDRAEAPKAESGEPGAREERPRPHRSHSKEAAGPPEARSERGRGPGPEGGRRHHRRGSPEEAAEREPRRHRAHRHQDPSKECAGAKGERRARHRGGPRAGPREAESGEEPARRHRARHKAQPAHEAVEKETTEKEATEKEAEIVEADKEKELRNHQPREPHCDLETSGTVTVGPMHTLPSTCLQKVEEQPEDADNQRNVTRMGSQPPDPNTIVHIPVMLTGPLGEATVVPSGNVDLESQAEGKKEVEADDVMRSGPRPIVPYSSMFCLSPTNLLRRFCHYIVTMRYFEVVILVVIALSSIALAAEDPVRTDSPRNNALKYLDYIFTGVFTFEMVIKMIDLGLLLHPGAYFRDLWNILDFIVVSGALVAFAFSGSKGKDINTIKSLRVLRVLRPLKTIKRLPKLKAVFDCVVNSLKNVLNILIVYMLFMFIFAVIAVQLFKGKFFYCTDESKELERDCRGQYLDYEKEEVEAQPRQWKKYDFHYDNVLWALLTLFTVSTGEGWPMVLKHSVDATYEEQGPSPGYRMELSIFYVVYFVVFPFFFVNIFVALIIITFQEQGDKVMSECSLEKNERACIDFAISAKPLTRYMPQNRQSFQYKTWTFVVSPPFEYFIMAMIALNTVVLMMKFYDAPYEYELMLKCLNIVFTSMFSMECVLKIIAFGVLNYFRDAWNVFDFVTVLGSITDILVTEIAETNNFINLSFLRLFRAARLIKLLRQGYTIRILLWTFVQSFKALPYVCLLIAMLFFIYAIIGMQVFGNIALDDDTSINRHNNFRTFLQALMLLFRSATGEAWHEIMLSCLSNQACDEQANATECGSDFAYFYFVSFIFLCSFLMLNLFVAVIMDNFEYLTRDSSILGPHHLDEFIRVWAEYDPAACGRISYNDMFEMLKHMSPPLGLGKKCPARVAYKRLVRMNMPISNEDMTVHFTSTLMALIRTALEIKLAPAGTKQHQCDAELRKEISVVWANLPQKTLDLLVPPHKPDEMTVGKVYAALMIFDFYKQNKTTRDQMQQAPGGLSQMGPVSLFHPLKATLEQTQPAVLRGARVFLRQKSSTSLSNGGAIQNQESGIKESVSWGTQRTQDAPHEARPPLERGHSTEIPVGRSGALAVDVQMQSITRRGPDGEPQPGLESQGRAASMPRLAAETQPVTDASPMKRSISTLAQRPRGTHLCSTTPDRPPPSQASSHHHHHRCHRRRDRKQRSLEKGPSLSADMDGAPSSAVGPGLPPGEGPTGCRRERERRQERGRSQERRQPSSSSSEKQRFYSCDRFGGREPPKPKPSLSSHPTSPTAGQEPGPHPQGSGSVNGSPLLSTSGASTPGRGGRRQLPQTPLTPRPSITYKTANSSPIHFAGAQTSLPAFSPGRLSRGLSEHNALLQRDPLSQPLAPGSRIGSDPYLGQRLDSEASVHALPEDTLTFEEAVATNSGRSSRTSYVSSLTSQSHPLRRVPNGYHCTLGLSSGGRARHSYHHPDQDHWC
- experimental_protocol: disruptors of CaV2.2 binding to Mint1 – biochemical, HTRF (AID 2073)
- reported_conditions: HTRF protein-protein interaction, Mint1-CaV2.2; at 20 µM; hits give high values
Among all 290,000 compounds or so, about 570 (0.2%) were called active. Not shown: some 1% with an inconclusive outcome. The full list was thinned out, with actives kept by preference.
readout_name: inhibition

Before answering, review these 5 worked examples.
> print(dat)
                                   molecule                       experimental.system             result
1          CCc1nnc(N/N=C/c2c(Cl)cccc2Cl)n1N  Voltage-dependent N-type calcium channel subunit alpha-1B (Homo sapiens) (UniProt Q00975)   -7.9% (inactive)
2     CC(=O)N1CCN(C(=O)c2ccc3c(c2)OCCO3)CC1  Voltage-dependent N-type calcium channel subunit alpha-1B (Homo sapiens) (UniProt Q00975)   16.6% (inactive)
3  COCCCN1C(=O)C(=O)/C(=C(/O)c2ccc(S(=O)(=O)N3CCCCC3)cc2)C1c1ccc(O)cc1 (configuration not stated)  Voltage-dependent N-type calcium channel subunit alpha-1B (Homo sapiens) (UniProt Q00975)      2% (inactive)
4           Cc1[nH]c2ccccc2c1/C=N/Nc1nncn1N  Voltage-dependent N-type calcium channel subunit alpha-1B (Homo sapiens) (UniProt Q00975)  -14.7% (inactive)
5              COc1cccc(OC)c1C(=O)Nc1cccnc1  Voltage-dependent N-type calcium channel subunit alpha-1B (Homo sapiens) (UniProt Q00975)   -4.9% (inactive)

Could you report inhibition for every entry in the following list?
1. CCCN1C2=NCCN2c2ccccc21
2. CC(C)c1csc(CN2CCN(Cc3ccccc3)C(CCO)C2)n1 (configuration not stated)
3. CC1(C)CC(NC(=O)c2ccccc2C(=O)NC2CC(C)(C)NC(C)(C)C2)CC(C)(C)N1
4. CCOc1ccccc1-n1c(SCC(N)=O)nnc1-c1ccccc1
5. O=C(c1cccc(C(=O)N(c2ccccn2)C2CCCCC2)c1)N(c1ccccn1)C1CCCCC1
6. CS(=O)(=O)Nc1cccc2[nH]ncc12
7. Cc1ccc2nc(NC(=O)CN3CCOCC3)sc2c1

Result:
1. 2.5% (inactive)
2. 11.5% (inactive)
3. 32.5% (inactive)
4. -2.1% (inactive)
5. -10.9% (inactive)
6. 6.1% (inactive)
7. -0.6% (inactive)

----------
- experimental_system: Voltage-dependent N-type calcium channel subunit alpha-1B (Homo sapiens)
- experimental_protocol: disruptors of CaV2.2 binding to Mint1 – biochemical, HTRF (AID 2073)
- reported_conditions: HTRF protein-protein interaction, Mint1-CaV2.2; at 20 µM; hits give high values
Out of some 290,000 compounds screened, about 570 (0.2%) were called active. Not shown: some 1% with an inconclusive outcome. The list comes from a sample in which actives are over-represented; it also holds close analogues and randomly drawn compounds.
Hi there, I'd appreciate the recorded inhibition for every entry that follows.
Give bare numbers, in %.

Guide cases for inhibition, answers given:
> print(dat)
                                   molecule  quantitative.readout
1  COc1ccc(-n2c(C)c(C(=O)O)c3cc(OC)c4ccccc4c32)cc1                  13.1
2          CN1CCN(S(=O)(=O)c2ccc(Cl)cc2)CC1                   5.7
3  O=P(c1ccccc1)(c1ccccc1)C(O)c1ccco1 (configuration not stated)                  -0.2

Look at each molecule and report its inhibition.
1. O=S(=O)(c1ccc(Cl)cc1)N1CCCCCC1
2. Cc1sc(NC(=O)CN(Cc2ccc(F)cc2)C(=O)C(C)C)c(C(N)=O)c1C
3. COc1ccccc1S(=O)(=O)Cc1ccc(C(=O)N2CCCC2)o1

Result:
[13.9, -9.6, 0.3]

Problem: Endpoint output: inhibition of CC1(C(=O)N2CC3(CC(c4cccc([N+](=O)[O-])c4)=NO3)C[C@H]2C(=O)NCC(N)=O)CC1 (some centres not stated) . Value?
Result: -4.4
